Exercise: state measured % inhibition at 100 µM for each of the binders provided.
target: Trypsin, Iodination grade, from human pancreas (human, UniProt P07477 24-247); experiment: cell-based or functional assay
Numbers only, in %.

Each binder below has a recorded value; state its % inhibition at 100 µM.
1. FCTKXDPPICS (HELM PEPTIDE1{F.C.T.K.[NC[C@H](N[*:1])C(=O)[*:2]].D.P.P.I.C.S.[dP].P}$PEPTIDE1,PEPTIDE1,2:R3-10:R3|PEPTIDE1,PEPTIDE1,1:R1-13:R2$$$V2.0; SMILES CC[C@H](C)[C@@H]1NC(=O)[C@@H]2CCCN2C(=O)[C@@H]2CCCN2C(=O)[C@H](CC(=O)O)NC(=O)[C@H](CN)NC(=O)[C@H](CCCCN)NC(=O)[C@H]([C@@H](C)O)NC(=O)[C@@H]2CSSC[C@H](NC1=O)C(=O)N[C@@H](CO)C(=O)N1CCC[C@@H]1C(=O)N1CCC[C@H]1C(=O)N[C@@H](Cc1ccccc1)C(=O)N2) [Example 25]
2. FCTKSDPPICY (HELM PEPTIDE1{F.C.T.K.S.D.P.P.I.C.Y.[dP].P}$PEPTIDE1,PEPTIDE1,2:R3-10:R3|PEPTIDE1,PEPTIDE1,1:R1-13:R2$$$V2.0; SMILES CC[C@H](C)[C@@H]1NC(=O)[C@@H]2CCCN2C(=O)[C@@H]2CCCN2C(=O)[C@H](CC(=O)O)NC(=O)[C@H](CO)NC(=O)[C@H](CCCCN)NC(=O)[C@H]([C@@H](C)O)NC(=O)[C@@H]2CSSC[C@H](NC1=O)C(=O)N[C@@H](Cc1ccc(O)cc1)C(=O)N1CCC[C@@H]1C(=O)N1CCC[C@H]1C(=O)N[C@@H](Cc1ccccc1)C(=O)N2) [Example 5]
3. FCTKSEPPICS (HELM PEPTIDE1{F.C.T.K.S.E.P.P.I.C.S.[dP].P}$PEPTIDE1,PEPTIDE1,2:R3-10:R3|PEPTIDE1,PEPTIDE1,1:R1-13:R2$$$V2.0; SMILES CC[C@H](C)[C@@H]1NC(=O)[C@@H]2CCCN2C(=O)[C@@H]2CCCN2C(=O)[C@H](CCC(=O)O)NC(=O)[C@H](CO)NC(=O)[C@H](CCCCN)NC(=O)[C@H]([C@@H](C)O)NC(=O)[C@@H]2CSSC[C@H](NC1=O)C(=O)N[C@@H](CO)C(=O)N1CCC[C@@H]1C(=O)N1CCC[C@H]1C(=O)N[C@@H](Cc1ccccc1)C(=O)N2) [Example 21]
4. FCTKSDPPICS (HELM PEPTIDE1{F.C.T.K.S.D.P.P.I.C.S.[dP].D}$PEPTIDE1,PEPTIDE1,2:R3-10:R3|PEPTIDE1,PEPTIDE1,1:R1-13:R2$$$V2.0; SMILES CC[C@H](C)[C@@H]1NC(=O)[C@@H]2CCCN2C(=O)[C@@H]2CCCN2C(=O)[C@H](CC(=O)O)NC(=O)[C@H](CO)NC(=O)[C@H](CCCCN)NC(=O)[C@H]([C@@H](C)O)NC(=O)[C@@H]2CSSC[C@H](NC1=O)C(=O)N[C@@H](CO)C(=O)N1CCC[C@@H]1C(=O)N[C@@H](CC(=O)O)C(=O)N[C@@H](Cc1ccccc1)C(=O)N2) [Example 47]

1. 89.3
2. 92
3. 95.6
4. 87

Each binder below has a recorded value; state its % inhibition at 100 µM.
1. ICTKSDPPQCR (HELM PEPTIDE1{I.C.T.K.S.D.P.P.Q.C.R.[dP].P}$PEPTIDE1,PEPTIDE1,2:R3-10:R3|PEPTIDE1,PEPTIDE1,1:R1-13:R2$$$V2.0; SMILES CC[C@H](C)[C@@H]1NC(=O)[C@@H]2CCCN2C(=O)[C@H]2CCCN2C(=O)[C@H](CCCNC(=N)N)NC(=O)[C@@H]2CSSC[C@H](NC1=O)C(=O)N[C@@H]([C@@H](C)O)C(=O)N[C@@H](CCCCN)C(=O)N[C@@H](CO)C(=O)N[C@@H](CC(=O)O)C(=O)N1CCC[C@H]1C(=O)N1CCC[C@H]1C(=O)N[C@@H](CCC(N)=O)C(=O)N2) [Example 55]
2. RETKSDPPIRF (HELM PEPTIDE1{R.E.T.K.S.D.P.P.I.R.F.[dP].P}$PEPTIDE1,PEPTIDE1,1:R1-13:R2$$$V2.0; SMILES CC[C@H](C)[C@@H]1NC(=O)[C@@H]2CCCN2C(=O)[C@@H]2CCCN2C(=O)[C@H](CC(=O)O)NC(=O)[C@H](CO)NC(=O)[C@H](CCCCN)NC(=O)[C@H]([C@@H](C)O)NC(=O)[C@H](CCC(=O)O)NC(=O)[C@H](CCCNC(=N)N)NC(=O)[C@@H]2CCCN2C(=O)[C@H]2CCCN2C(=O)[C@H](Cc2ccccc2)NC(=O)[C@H](CCCNC(=N)N)NC1=O) [Example 7]
3. FCTKSDPPICS (HELM PEPTIDE1{F.C.T.K.S.D.P.P.I.C.S.[dP].E}$PEPTIDE1,PEPTIDE1,2:R3-10:R3|PEPTIDE1,PEPTIDE1,1:R1-13:R2$$$V2.0; SMILES CC[C@H](C)[C@@H]1NC(=O)[C@@H]2CCCN2C(=O)[C@@H]2CCCN2C(=O)[C@H](CC(=O)O)NC(=O)[C@H](CO)NC(=O)[C@H](CCCCN)NC(=O)[C@H]([C@@H](C)O)NC(=O)[C@@H]2CSSC[C@H](NC1=O)C(=O)N[C@@H](CO)C(=O)N1CCC[C@@H]1C(=O)N[C@@H](CCC(=O)O)C(=O)N[C@@H](Cc1ccccc1)C(=O)N2) [Example 64]

90
41
87
